Provenance of the data: the supplement of paper PMC9170038

Recorded apparent KD of MS2 coat protein values for a group of sequences are listed next.
test system: MS2 coat protein; experiment: apparent KD of MS2 coat protein; higher = weaker reporter binding; conditions: Eterna round: R107; input ligand: arginine 13.2 mM

The examples below pair each entry with its known result.
QUERY: Return apparent KD of MS2 coat protein (reported value) for this sequence: GGACCAUGGCGCGAUACCAGCUUGAGUGUACUGGCCAGGUACAUGAGGAUCACCCAUGUAAGCCCUUGGCAGCGCGCCAUGGUCC [#1 Exclusion - Theophylline B Attempt #24 (HarryS)]
RESULT: 10.4 nM

QUERY: Return apparent KD of MS2 coat protein (reported value) for this sequence: CAUACUUUAGUAUGUAAUGUGGACAGUGAUACCAGAUACGAAAGUAUCCCUUGGCAGCACAACAUGAGGAUCACCCAUGUAUUUU [Theophylline A 3]
RESULT: 20.9 nM

QUERY: Return apparent KD of MS2 coat protein (reported value) for this sequence: CAUGGGUGGUAUCACCCAUCCAUAGGUGAUACCAGCAUCGAAAGAUGCCCUUGGCAGCACCAACAUGAGGAUCACCCAUGUAAUA [(M)'-(T)'-(M)''-(T1)-(T2)-(M1)-(M2)_Design2]
RESULT: 48.1 nM

QUERY: Return apparent KD of MS2 coat protein (reported value) for this sequence: CUCCCGUGAGCGGCCGCCACUGGAGGCCUCGCGCGACAUGAGGAUCACCCAUGUUGGCCCGGCCUCAGGACCGGGUUCGCGUGAG [Same State - Tryptophan B Attempt #6 (HarryS)]
RESULT: 7.47 nM

Others:
QUERY: Return apparent KD of MS2 coat protein (reported value) for this sequence: AACAUGAGGAUCACCCAUGUUUGCUAUGAAGGAGCGUCGGAAAUGACAGGUAGGUCGCAUGGUAGACCGAGUAUUAUCUGUAUGG [EAA NP+V+V2 #11]
RESULT: 14.9 nM
